- study.system: furin, P09958;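 note: purified furin at 1:10 enzyme:substrate in 50 mM HEPES pH 7.5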
- Sequence (P09958 whole entry): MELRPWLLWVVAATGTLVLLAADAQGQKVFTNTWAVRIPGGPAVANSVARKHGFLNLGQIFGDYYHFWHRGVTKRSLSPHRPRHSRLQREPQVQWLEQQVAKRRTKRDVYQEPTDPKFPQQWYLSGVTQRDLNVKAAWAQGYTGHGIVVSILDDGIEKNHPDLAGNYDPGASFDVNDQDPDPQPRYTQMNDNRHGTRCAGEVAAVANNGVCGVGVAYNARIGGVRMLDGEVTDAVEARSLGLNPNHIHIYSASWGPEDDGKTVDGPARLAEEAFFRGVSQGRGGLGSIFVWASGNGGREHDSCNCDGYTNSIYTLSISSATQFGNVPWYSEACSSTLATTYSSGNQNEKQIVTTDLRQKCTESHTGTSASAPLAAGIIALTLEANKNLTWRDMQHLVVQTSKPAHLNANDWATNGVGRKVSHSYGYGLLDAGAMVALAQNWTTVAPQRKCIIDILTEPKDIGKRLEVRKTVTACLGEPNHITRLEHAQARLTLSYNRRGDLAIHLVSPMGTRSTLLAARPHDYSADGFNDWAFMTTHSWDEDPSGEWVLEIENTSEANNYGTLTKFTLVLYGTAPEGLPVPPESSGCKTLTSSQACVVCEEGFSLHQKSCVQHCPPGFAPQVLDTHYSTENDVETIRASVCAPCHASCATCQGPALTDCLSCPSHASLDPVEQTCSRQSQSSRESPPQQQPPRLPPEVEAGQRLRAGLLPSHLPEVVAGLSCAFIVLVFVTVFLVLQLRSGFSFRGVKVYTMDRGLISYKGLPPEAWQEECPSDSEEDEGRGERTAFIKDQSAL
- procedure.text: furin cleavage Z-score vs untreated control; higher = more cleavage, active = 3.5 or more, inactive = 1 or less, 8 variable residues between constant flanks
- condition.parameters: 7.5 min
Some of the results follow. How many sequences the whole screen found active is unknown.
Write down the outcome that applies. Available outcomes: Y (active), N (inactive)

Consider the worked cases shown below.
[
  {
    "residue.string": "CAKLGVPPLRAGNASASA [HC1616]",
    "assigned.label": "N"
  },
  {
    "residue.string": "CARGKPGIYRAGNASASA [HC907]",
    "assigned.label": "N"
  },
  {
    "residue.string": "CASSEANAEDAGNASASA [HC1365]",
    "assigned.label": "N"
  },
  {
    "residue.string": "CAKRSHLKRDAGNASASA [FS-680]",
    "assigned.label": "Y"
  },
  {
    "residue.string": "CAKKSRAERKAGNASASA [FS-676]",
    "assigned.label": "N"
  },
  {
    "residue.string": "CARGMRALGVAGNASASA [FS-1710]",
    "assigned.label": "N"
  },
  {
    "residue.string": "CAAAGQLDLSAGNASASA [HC1641]",
    "assigned.label": "N"
  },
  {
    "residue.string": "CARRSRDVSCAGNASASA [FS-2519]",
    "assigned.label": "Y"
  }
]

Q) Given CARGKRATTVAGNASASA [FS-3249] , state the outcome it received in this test.
A) Y

Q) Returns: the outcome recorded for CAEYPCHRPSAGNASASA [HC2329] in this assay.
A) N

Q) Short answer needed: outcome of this test for CARYGRFLQPAGNASASA [FS-3134] ?
A) N

Q) What call does the record list for CAQDAVSRTQAGNASASA [HC900] ?
A) N

Q) Test call for this sequence, please: CAYHVTNDCPAGNASASA [HC261]
A) N

Q) Please share the test call associated with CAKKSRKSRPAGNASASA [FS-43] .
A) N

Q) Called result for CAREGRLKRDAGNASASA [FS-1256]
A) Y

Q) Hi team, can someone confirm the assay call for CAWLIRRRRSAGNASASA [FS-1180] ?
A) Y

Q) What is the recorded call for this sequence in the test? CATTPDSGSWAGNASASA [HC52]
A) N

Q) Give the logged outcome of this assay for the following sequence: CARGGRDHGDAGNASASA [FS-2014]
A) N

Q) Please state the recorded outcome for this sequence: CAAKQRGKRAAGNASASA [FS-578]
A) Y

Q) What is the recorded call for this sequence in the test? CAMEECSQHGAGNASASA [HC1776]
A) N

Q) Record lookup: outcome of this test for CAWWRRRRRSAGNASASA [FS-1503] ?
A) Y

Origin of the recorded values: the supplement of paper PMC3545927
